Where these numbers come from: patent US7241799B2

- Experimental System: CB1 receptor (Rattus norvegicus, UniProt P20272)
- Construct: membranes were prepared from rat forebrain membranes; from tissue; host or cells: rat forebrain
- Sequence (P20272 whole entry): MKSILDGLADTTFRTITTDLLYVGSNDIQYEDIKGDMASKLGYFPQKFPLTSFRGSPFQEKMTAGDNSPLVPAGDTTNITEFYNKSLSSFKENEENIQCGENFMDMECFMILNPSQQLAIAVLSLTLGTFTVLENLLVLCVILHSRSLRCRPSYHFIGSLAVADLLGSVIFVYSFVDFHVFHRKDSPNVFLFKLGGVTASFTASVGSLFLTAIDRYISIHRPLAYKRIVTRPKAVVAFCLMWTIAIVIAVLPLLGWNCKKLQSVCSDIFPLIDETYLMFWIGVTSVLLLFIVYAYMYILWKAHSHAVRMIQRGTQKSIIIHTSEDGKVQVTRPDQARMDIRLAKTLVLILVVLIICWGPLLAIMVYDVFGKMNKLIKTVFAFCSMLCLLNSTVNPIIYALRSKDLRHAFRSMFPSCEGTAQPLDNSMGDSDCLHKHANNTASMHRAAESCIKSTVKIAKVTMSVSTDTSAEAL
- Test Description: CB1 receptor binding, [3H] CP-55,940 displacement, rat forebrain membranes
- Measurement Setup: TABLE 2; rat forebrain membranes; 0.8 nM [3H] CP-55,940; read-out: Kl CB1
Label key: t means Ki under 40 nM; f means Ki of 40 nM or more.

Determine whether this compound shows Ki lower than 40 nM (ties excluded): `O=C(c1cccc2ccccc12)c1cn(CCCCO)c2ccccc12`
f

Also need `O=C(c1cccc2ccccc12)c1cn(CCCCN=C=S)c2ccccc12` , thanks.
f

Also need `N#CCCCCn1cc(C(=O)c2cccc3ccccc23)c2ccc([N+](=O)[O-])cc21` , thanks.
t

Also need `Cc1c(C(=O)c2ccccc2I)c2ccccc2n1CCCCCI` , thanks.
f

Also need `CC(=O)OCCCCn1cc(C(=O)c2cccc3ccccc23)c2ccccc21` , thanks.
f

Also need `O=C(c1cccc2ccccc12)c1cn(CCCI)c2ccccc12` , thanks.
t

Also need `O=C(c1cccc2ccccc12)c1cn(CCCCCO)c2ccccc12` , thanks.
t

Also need `O=C(c1ccc(N=C=S)c2ccccc12)c1cn(CCCCI)c2ccccc12` , thanks.
f

Also need `CCCCCCn1c(C)c(C(=O)c2ccccc2I)c2ccccc21` , thanks.
f

Also need `O=C(c1ccccc1I)c1cn(CCCCCN=C=S)c2ccccc12` , thanks.
f

Also need `O=C(c1cccc2ccccc12)c1cn(CCCCCI)c2ccccc12` , thanks.
t

Also need `Cc1c(C(=O)c2ccccc2I)c2ccccc2n1CCCCCF` , thanks.
t

Also need `CC(=O)OCCCCCn1cc(C(=O)c2cccc3ccccc23)c2ccc(N)cc21` , thanks.
f

Also need `CCCCn1c(C)c(C(=O)c2ccccc2I)c2ccccc21` , thanks.
f

Also need `O=C(c1ccc([N+](=O)[O-])c2ccccc12)c1cn(CCCCI)c2ccccc12` , thanks.
t

Also need `O=C(c1ccccc1I)c1cn(CCCCCI)c2ccccc12` , thanks.
f

Also need `Cc1c(C(=O)c2ccccc2I)c2ccccc2n1CCCCCO` , thanks.
f

Also need `CCCCCn1cc(C(=O)c2cc(N=C=S)ccc2I)c2ccccc21` , thanks.
f

Also need `Cc1ccc(S(=O)(=O)OCCCCCn2c(C)c(C(=O)c3ccccc3I)c3ccccc32)cc1` , thanks.
f

Also need `CCCCCn1cc(C(=O)c2cc(N)ccc2I)c2ccccc21` , thanks.
f

Also need `CCCCCn1cc(C(=O)c2cc(I)ccc2I)c2ccccc21` , thanks.
f

Also need `CCCCCn1cc(C(=O)c2cc(N=[N+]=[N-])ccc2I)c2ccccc21` , thanks.
f

Also need `O=C(c1cccc2ccccc12)c1cn(CCCCCN=C=S)c2ccccc12` , thanks.
t

Also need `CC(=O)OCCCCCn1cc(C(=O)c2cccc3ccccc23)c2ccc([N+](=O)[O-])cc21` , thanks.
f

Also need `O=C(c1cccc2ccccc12)c1cn(CCCCCO)c2cc([N+](=O)[O-])ccc12` , thanks.
f

Also need `CC(=O)OCCCCCn1c(C)c(C(=O)c2ccccc2I)c2ccccc21` , thanks.
f

Also need `O=C(c1ccccc1I)c1cn(CCCCCO)c2ccccc12` , thanks.
f

Also need `Nc1ccc2c(C(=O)c3cccc4ccccc34)cn(CCCCCO)c2c1` , thanks.
f

Also need `CCCCCn1c(C)c(C(=O)c2ccccc2I)c2ccccc21` , thanks.
f

Also need `CCCCCn1cc(C(=O)c2ccccc2I)c2ccccc21` , thanks.
t

Also need `CC(=O)OCCCCCn1cc(C(=O)c2ccccc2I)c2ccccc21` , thanks.
f

Also need `CCCCCn1c(C)c(C(=O)c2ccc(N(C)C)c3ccccc23)c2ccccc21` , thanks.
t

Also need `Cc1c(C(=O)c2ccccc2I)c2ccccc2n1CCCCCN=C=S` , thanks.
f

Also need `Cc1ccc(S(=O)(=O)OCCCCn2cc(C(=O)c3cccc4ccccc34)c3ccccc32)cc1` , thanks.
f

Also need `O=C(c1cccc2ccccc12)c1cn(CCCCI)c2ccccc12` , thanks.
t

Also need `O=C(c1cccc2ccccc12)c1cn(CCCCCF)c2ccccc12` , thanks.
t

Also need `Cc1ccc(S(=O)(=O)OCCCn2cc(C(=O)c3cccc4ccccc34)c3ccccc32)cc1` , thanks.
f

Also need `[N-]=[N+]=Nc1ccc(C(=O)c2cn(CCCCI)c3ccccc23)c2ccccc12` , thanks.
t

Also need `CCCCCCCn1c(C)c(C(=O)c2ccccc2I)c2ccccc21` , thanks.
f
